Origin of values: patent US20190133128A1

Tested on: Phytophthora infestans
EXPERIMENT_DESCRIPTION: whole plant or invertebrate
Type: in vivo
RUN_PARAMETERS: 250 ppm; tomato seedlings; 100 = 100% disease control, 0 = no control
In this section, each of the compounds is paired with its reported Test D disease control rating.
Reply numerically in %, unit not repeated.

{"SMILES_STR": "Cn1ncc(O)c(C(=O)Nc2cccc(OC(F)(F)F)c2)c1=O", "Test D disease control rating / %": 0}
{"SMILES_STR": "Cn1ncc(O)c(C(=O)Nc2ccc(Cl)cc2F)c1=O", "Test D disease control rating / %": 90}
{"SMILES_STR": "Cc1cccc(NC(=O)c2c(O)cnn(C)c2=O)c1", "Test D disease control rating / %": 0}
{"SMILES_STR": "Cc1cc(OC(F)(F)F)ccc1NC(=O)c1c(O)cnn(C)c1=O", "Test D disease control rating / %": 99}

## Task Sample `Cn1ncc(O)c(C(=O)Nc2ccc(CC(F)(F)F)cc2)c1=O` — what was its Test D disease control rating?
## Result 96
